- TARGET ENTITY: Tyrosine-protein kinase ZAP-70 (Homo sapiens) (UniProt P43403)
- Sequence (whole entry): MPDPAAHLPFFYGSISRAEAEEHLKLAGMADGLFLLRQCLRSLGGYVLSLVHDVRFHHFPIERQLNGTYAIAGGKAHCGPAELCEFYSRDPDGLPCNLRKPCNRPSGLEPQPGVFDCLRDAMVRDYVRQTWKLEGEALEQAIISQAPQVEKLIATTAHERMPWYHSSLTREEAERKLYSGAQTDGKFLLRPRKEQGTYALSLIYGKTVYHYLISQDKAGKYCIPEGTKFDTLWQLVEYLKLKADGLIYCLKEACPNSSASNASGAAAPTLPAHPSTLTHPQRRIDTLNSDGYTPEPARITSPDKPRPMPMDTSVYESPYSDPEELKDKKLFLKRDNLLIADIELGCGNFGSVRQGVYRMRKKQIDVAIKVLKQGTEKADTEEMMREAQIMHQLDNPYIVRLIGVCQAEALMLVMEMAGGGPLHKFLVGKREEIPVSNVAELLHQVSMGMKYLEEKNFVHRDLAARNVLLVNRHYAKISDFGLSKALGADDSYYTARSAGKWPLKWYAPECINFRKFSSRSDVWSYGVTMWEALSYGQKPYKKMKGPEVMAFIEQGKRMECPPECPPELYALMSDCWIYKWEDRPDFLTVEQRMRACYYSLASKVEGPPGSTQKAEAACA
- CONDITION INFO: at 10 µM
OBSERVED PROPERTY: residual activity (%)
Report the figure in % without appending any unit label.

Known residual activity results, listed for orientation:
{"columns": ["QUERY SMILES", "UNIT LABEL", "residual activity"],
 "data": [
  ["N/C(=N\\[N+](=O)[O-])N/N=C\\c1ccc(-c2cccc([N+](=O)[O-])c2)o1", "%", 100],
  ["Cn1cc(/C=C2\\C(=O)Nc3ccc(S(N)(=O)=O)cc32)c2ccccc21", "%", 125],
  ["COc1cc2ncnc(Nc3cccc(Cl)c3)c2cc1OC", "%", 125],
  ["Cc1ccc(S(=O)(=O)/C=C/C#N)cc1", "%", 118],
  ["COc1cc(OC)c(/C=C2\\C(=O)Nc3ccccc32)c(OC)c1", "%", 82]
]}

Kindly consider the entry below.
Input line: Returns the measured residual activity for the input compound. Input: O=c1cc(-c2cccc3c2Sc2ccccc2S3)oc(N2CCOCC2)c1
Output line: 85

Data credit: ChEMBL document CHEMBL2218924
